- Target Or Test System: Voltage-dependent L-type calcium channel subunit alpha-1C (Oryctolagus cuniculus)
- Method Summary: Inhibition of Cav1.2 calcium current measured using whole cell patch clamp in rabbit ventricular myocytes
- Type: functional, cell-based, Heart, Ventricular myocyte
- Set-up: ca sol conc 1.8 mM, temp 23 C
Result Type: IC50 (µM)

> print(dat)
                                test.smiles  result.type  unit.abbrev  assay.value
1  CC(C)(C)OC(=O)N1CC2CC(CN(C[C@H](O)COc3ccc(C#N)cc3)C2)C1         IC50           µM            6

----------
- Target Or Test System: Voltage-dependent L-type calcium channel subunit alpha-1C (Rattus norvegicus)
- Method Summary: Inhibition of Cav1.2 calcium current measured using whole cell patch clamp in rat ventricular myocytes
- Type: functional, cell-based, Heart, Ventricular myocyte
- Design: ca sol conc 1.8 mM, temp 22-26 C
Result Type: IC50

> print(dat)
                                test.smiles  result.type  assay.value
1  Oc1c(CN2CCCC2)cc(Nc2ncnc3ccccc23)cc1CN1CCCC1         IC50      74.7 µM

----------
- Target Or Test System: Voltage-dependent L-type calcium channel subunit alpha-1C (Cavia porcellus, UniProt O35505)
- Sequence (O35505 whole entry): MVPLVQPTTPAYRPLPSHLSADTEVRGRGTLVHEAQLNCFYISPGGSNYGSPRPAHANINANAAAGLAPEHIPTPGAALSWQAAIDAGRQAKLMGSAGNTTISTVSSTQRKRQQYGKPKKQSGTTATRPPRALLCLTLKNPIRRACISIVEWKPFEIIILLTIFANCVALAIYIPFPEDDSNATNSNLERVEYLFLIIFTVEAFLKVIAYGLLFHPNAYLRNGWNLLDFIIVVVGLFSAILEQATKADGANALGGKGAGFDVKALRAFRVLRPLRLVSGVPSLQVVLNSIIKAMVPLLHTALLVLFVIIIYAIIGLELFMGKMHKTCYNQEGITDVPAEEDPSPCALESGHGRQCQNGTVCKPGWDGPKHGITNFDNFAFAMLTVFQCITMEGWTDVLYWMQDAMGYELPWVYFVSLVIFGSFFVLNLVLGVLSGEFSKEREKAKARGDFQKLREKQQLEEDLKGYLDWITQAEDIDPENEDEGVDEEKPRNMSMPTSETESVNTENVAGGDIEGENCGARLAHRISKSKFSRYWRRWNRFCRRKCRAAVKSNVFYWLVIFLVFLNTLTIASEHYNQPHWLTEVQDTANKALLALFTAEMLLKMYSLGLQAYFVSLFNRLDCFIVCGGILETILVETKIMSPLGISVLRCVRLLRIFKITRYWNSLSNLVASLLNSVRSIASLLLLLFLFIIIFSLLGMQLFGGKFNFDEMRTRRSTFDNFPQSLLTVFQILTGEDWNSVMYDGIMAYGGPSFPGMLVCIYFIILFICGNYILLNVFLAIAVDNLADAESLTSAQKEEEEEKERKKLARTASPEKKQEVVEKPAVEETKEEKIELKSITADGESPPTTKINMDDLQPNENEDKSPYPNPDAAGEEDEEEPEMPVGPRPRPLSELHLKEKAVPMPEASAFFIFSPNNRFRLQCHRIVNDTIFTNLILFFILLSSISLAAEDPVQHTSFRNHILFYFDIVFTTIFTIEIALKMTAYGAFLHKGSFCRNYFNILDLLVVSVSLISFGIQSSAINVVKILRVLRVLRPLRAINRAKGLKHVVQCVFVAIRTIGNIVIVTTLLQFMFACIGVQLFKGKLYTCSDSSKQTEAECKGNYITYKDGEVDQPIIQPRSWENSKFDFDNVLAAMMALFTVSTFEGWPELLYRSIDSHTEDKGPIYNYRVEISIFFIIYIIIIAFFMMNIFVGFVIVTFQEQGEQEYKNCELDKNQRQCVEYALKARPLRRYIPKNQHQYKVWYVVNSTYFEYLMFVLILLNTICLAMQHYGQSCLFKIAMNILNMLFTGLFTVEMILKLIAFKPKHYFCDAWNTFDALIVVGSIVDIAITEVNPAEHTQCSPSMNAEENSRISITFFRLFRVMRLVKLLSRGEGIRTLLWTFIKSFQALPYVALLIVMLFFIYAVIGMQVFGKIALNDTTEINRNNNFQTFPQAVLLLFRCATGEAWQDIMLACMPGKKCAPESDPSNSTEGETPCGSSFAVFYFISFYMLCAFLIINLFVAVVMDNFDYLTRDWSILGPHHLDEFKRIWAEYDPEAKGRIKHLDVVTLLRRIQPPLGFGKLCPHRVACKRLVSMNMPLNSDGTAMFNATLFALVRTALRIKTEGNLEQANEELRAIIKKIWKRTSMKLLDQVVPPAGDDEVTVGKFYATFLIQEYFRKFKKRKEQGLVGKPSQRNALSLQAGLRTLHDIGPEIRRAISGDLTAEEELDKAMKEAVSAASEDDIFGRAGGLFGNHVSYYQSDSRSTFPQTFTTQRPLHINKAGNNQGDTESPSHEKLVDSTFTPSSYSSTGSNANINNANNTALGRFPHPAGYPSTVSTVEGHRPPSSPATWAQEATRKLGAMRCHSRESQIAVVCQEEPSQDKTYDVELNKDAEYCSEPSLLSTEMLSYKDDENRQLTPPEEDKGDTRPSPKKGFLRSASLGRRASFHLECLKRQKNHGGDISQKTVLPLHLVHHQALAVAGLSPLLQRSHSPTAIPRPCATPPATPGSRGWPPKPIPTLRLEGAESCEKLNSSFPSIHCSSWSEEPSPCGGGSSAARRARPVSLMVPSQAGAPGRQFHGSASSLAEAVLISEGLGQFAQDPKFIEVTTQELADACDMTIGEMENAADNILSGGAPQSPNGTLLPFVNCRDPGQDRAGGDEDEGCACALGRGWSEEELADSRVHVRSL
- Method Summary: Inhibition of Cav1.2 calcium current measured using whole Cell patch clamp in guinea pig ventricular myocytes
- Type: functional, cell-based, Heart, Ventricular myocyte
- Parameters: ca sol conc 1.8 mM
pIC50: −log10 of the molar value.
Result Type: pIC50

> print(dat)
                                test.smiles  result.type  assay.value
1  Cc1ccc(-c2cc(C(F)(F)F)nn2-c2ccc(S(N)(=O)=O)cc2)cc1        pIC50         4.97

----------
- Target Or Test System: Voltage-dependent L-type calcium channel subunit alpha-1C (Mus musculus, UniProt Q01815)
- Method Summary: Inhibition of Cav1.2 calcium current measured using in mouse dorsal root ganglion neuron
- Type: functional, tissue-based
- Parameters: temp 20-23 C
- Sequence (Q01815 whole entry, looked up): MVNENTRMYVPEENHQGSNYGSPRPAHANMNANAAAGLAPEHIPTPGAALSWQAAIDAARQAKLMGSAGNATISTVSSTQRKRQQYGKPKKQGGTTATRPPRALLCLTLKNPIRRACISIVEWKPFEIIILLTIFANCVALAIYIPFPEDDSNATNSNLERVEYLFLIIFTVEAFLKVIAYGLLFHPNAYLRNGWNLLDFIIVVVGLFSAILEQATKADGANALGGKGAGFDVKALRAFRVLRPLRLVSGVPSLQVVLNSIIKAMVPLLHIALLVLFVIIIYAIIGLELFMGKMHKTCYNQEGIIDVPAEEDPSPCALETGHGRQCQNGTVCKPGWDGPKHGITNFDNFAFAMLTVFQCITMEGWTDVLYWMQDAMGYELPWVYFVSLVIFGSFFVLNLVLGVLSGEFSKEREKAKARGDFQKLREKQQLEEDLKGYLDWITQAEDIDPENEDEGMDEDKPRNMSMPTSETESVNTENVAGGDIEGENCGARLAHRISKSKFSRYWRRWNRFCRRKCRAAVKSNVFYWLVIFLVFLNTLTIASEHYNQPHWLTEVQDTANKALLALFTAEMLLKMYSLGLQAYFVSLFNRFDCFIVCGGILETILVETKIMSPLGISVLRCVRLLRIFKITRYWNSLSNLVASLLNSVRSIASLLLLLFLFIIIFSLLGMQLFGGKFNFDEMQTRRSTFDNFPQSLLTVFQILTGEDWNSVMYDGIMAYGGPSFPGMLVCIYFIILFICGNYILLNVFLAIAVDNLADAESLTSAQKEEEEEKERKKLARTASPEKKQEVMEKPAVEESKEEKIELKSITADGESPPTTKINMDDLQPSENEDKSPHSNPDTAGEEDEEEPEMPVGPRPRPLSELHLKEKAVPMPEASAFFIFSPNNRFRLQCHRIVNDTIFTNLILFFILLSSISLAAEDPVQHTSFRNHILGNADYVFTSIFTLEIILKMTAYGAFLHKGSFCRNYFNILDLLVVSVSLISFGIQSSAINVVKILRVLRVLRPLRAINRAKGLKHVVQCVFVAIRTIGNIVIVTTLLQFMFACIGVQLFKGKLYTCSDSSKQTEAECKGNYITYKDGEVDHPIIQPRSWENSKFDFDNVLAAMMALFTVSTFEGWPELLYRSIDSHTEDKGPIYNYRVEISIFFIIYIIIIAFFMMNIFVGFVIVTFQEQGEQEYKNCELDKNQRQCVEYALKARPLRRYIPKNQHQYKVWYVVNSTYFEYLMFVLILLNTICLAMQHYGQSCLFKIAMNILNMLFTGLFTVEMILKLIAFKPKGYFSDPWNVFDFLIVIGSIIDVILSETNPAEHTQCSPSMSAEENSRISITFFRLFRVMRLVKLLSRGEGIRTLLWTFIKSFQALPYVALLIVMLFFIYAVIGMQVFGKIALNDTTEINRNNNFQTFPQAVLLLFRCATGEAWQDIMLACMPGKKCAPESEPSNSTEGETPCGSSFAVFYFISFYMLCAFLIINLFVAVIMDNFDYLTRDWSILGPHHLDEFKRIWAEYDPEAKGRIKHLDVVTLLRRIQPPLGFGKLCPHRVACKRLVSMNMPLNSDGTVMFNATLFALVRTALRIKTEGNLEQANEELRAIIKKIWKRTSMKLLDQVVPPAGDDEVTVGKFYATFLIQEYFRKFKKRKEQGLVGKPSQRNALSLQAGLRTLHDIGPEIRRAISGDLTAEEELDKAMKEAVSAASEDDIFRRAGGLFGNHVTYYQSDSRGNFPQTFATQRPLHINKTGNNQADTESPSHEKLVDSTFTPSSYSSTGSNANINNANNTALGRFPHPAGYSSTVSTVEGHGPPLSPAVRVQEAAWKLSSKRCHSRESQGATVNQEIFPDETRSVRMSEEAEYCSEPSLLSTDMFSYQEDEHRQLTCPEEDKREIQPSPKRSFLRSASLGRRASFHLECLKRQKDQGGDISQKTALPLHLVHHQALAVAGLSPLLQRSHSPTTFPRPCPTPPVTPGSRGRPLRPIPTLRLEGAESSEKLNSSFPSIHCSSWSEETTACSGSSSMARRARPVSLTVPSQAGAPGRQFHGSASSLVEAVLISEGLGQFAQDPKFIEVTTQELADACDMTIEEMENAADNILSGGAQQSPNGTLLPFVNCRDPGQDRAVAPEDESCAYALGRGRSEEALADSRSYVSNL
pIC50: −log10 of the molar value.
Result Type: pIC50

> print(dat)
                     test.smiles                     target.or.test.system  result.type  assay.value
1  CC(C)(c1ccc(O)cc1)c1ccc(O)cc1  Voltage-dependent L-type calcium channel subunit alpha-1C (Mus musculus, UniProt Q01815)        pIC50         4.46

----------
- Target Or Test System: Voltage-dependent L-type calcium channel subunit alpha-1C (Mus musculus, UniProt Q01815)
- Method Summary: Inhibition of Cav1.2 calcium current measured using whole cell patch clamp in mouse ventricular myocytes
- Assay type: functional, cell-based, Heart, Ventricular myocyte
- Parameters: ca sol conc 2 mM, temp room
- Sequence (Q01815 whole entry): as the sequence (Q01815 whole entry, looked up) above
pIC50: −log10 of the molar value.
Result Type: pIC50

> print(dat)
                                test.smiles  assay.value
1  COc1ccc(CCN(C)CCCOc2ccc(S(=O)(=O)c3c(C(C)C)cn4ccccc34)cc2)cc1OC         6.82

----------
- Target Or Test System: Voltage-dependent L-type calcium channel subunit alpha-1C (Cavia porcellus)
- Method Summary: Inhibition of Cav1.2 calcium current measured using whole cell patch clamp in guinea pig ventricular myocytes
- Type: functional, cell-based, Heart, Ventricular myocyte
- Set-up: ca sol conc 1.8 mM, temp 20-24 C
Result Type: IC50 (µM)

> print(dat)
                                test.smiles                     target.or.test.system  unit.abbrev  assay.value
1  COc1ccc(S(=O)(=O)NCc2cc(CN3CCCC3)c(O)c(CN3CCCC3)c2)cc1  Voltage-dependent L-type calcium channel subunit alpha-1C (Cavia porcellus)           µM         69.2
